Test: Cytotoxicity, CEM cell growth
Type: cell-based
Conditions: human, cem cells; 3 days; read-out: Cytotoxicity (IC50) CEM cell
Measurement Kind: CC50 at 72 h

[
  {
    "Molecule Smiles": "O=C1OCc2c1cc1ccc3c(c1c2-c1ccc2c(c1)OCO2)OCO3",
    "Recorded Result": "22 µM"
  },
  {
    "Molecule Smiles": "O=C1OCc2c1cc1c(Br)cc3c(c1c2-c1cc2c(cc1Br)OCO2)OCO3",
    "Recorded Result": "> 30 µM"
  },
  {
    "Molecule Smiles": "OCc1cc2ccc3c(c2c(-c2ccc4c(c2)OCO4)c1CO)OCO3",
    "Recorded Result": "> 30 µM"
  },
  {
    "Molecule Smiles": "O=C1OC(=O)c2c1c(Br)c1cc3c(cc1c2-c1cc2c(cc1Br)OCO2)OCO3",
    "Recorded Result": "> 30 µM"
  },
  {
    "Molecule Smiles": "Cc1c(CO)cc2ccc3c(c2c1-c1ccc2c(c1)OCO2)OCO3",
    "Recorded Result": "> 30 µM"
  },
  {
    "Molecule Smiles": "O=C(O)c1cc2ccc3c(c2c(-c2ccc4c(c2)OCO4)c1CO)OCO3",
    "Recorded Result": "> 30 µM"
  },
  {
    "Molecule Smiles": "OCc1cc2c(Br)cc3c(c2c(-c2ccc4c(c2)OCO4)c1CO)OCO3",
    "Recorded Result": "> 30 µM"
  },
  {
    "Molecule Smiles": "O=C1OC(=O)c2c1cc1c(Br)cc3c(c1c2-c1cc2c(cc1Br)OCO2)OCO3",
    "Recorded Result": "> 30 µM"
  },
  {
    "Molecule Smiles": "O=C1OC(=O)c2c1cc1cc3c(cc1c2-c1cc2c(cc1Br)OCO2)OCO3",
    "Recorded Result": "> 30 µM"
  },
  {
    "Molecule Smiles": "O=C1OCc2cc3ccc4c(c3c(-c3ccc5c(c3)OCO5)c21)OCO4",
    "Recorded Result": "18 µM"
  }
]

---

Reported pEC50 values for a set of molecules
Test system: HBsAg in HepA2 cells
Experiment: Suppression of HBsAg secretion in HepA2 cells, serum-free, 2 days
Format: cell-based
Conditions: Homo sapiens, HepA2, 48 h, read-out: EC50 HepA2 (50% reduction of HBsAg secretion)
pEC50: −log10 of the molar value.

[
  {
    "Molecule": "O=C1OCc2c1cc1ccc3c(c1c2-c1ccc2c(c1)OCO2)OCO3",
    "pEC50": 6.60
  },
  {
    "Molecule": "O=C1OCc2c1c(-c1ccc3c(c1)OCO3)c1cc3c(cc1c2O)OCO3",
    "pEC50": "< 4.90"
  },
  {
    "Molecule": "COc1cc(-c2c3c(cc4cc(OC)c(O)cc24)C(=O)OC3)ccc1O [Dehydroconidendrin]",
    "pEC50": "< 4.90"
  },
  {
    "Molecule": "COc1cc(C2c3cc(O)c(OC)cc3CC3C(=O)OCC32)ccc1O (stereo not drawn)",
    "pEC50": "< 4.90"
  },
  {
    "Molecule": "COc1cc2c(OC)c3c(c(-c4ccc5c(c4)OCO5)c2cc1OC)C(=O)OC3",
    "pEC50": "< 4.90"
  },
  {
    "Molecule": "COc1cc2c(O)c3c(c(-c4ccc5c(c4)OCO5)c2cc1OC)C(=O)OC3",
    "pEC50": "< 4.90"
  },
  {
    "Molecule": "COc1cc2c(OC(C)=O)c3c(c(-c4ccc5c(c4)OCO5)c2cc1OC)C(=O)OC3 [Diphylline Acetate]",
    "pEC50": "< 4.90"
  },
  {
    "Molecule": "COc1ccc(C2c3cc(OC)c(OC)cc3CC3C(=O)OCC32)cc1OC (stereo not drawn)",
    "pEC50": "< 4.90"
  },
  {
    "Molecule": "COc1cc(-c2c3c(cc4cc(OC)c(OC(C)=O)cc24)C(=O)OC3)ccc1OC(C)=O [Diacetate]",
    "pEC50": "< 4.90"
  },
  {
    "Molecule": "O=C1OCc2cc3cc4c(cc3c(-c3ccc5c(c3)OCO5)c21)OCO4",
    "pEC50": 5.90
  },
  {
    "Molecule": "COc1cc(C2c3cc(OC(C)=O)c(OC)cc3CC3C(=O)OCC32)ccc1OC(C)=O (stereo not drawn) [Conidendrin Diacetate]",
    "pEC50": "< 4.90"
  },
  {
    "Molecule": "CC(=O)Oc1c2c(c(-c3ccc4c(c3)OCO4)c3cc4c(cc13)OCO4)C(=O)OC2 [Taiwanin E acetate]",
    "pEC50": "< 4.90"
  }
]
